Origin of values: PubChem BioAssay AID1159580

- assay: chemical genetic growth profiling, strain panel (AID 1159580)
- testContext: S. cerevisiae deletion strains, growth OD, locus YDL101C, strain DUN1, stronger effect = lower value
The whole screen tested about 5,500 compounds, of which about 2,000 (36%) were called active. Roughly 18% stayed inconclusive and do not appear here. The list shows a part of the results.
Each record is given 1 if its reported normalized growth is strictly below 1. Records at or above 1 are given -1.

smiles | classAssignment
Cc1nc(C(F)(F)F)ccc1C(=O)Sc1nnc(-c2ccc(C(F)(F)F)nc2C)o1 | 1

## Input I'd appreciate it if you could check whether `CC(C)=CCC1=C(O)c2ccccc2C(=O)C1=O` has normalized growth smaller than 1.
## Output 1

## Input Same thing, different compound: `O=C(O)c1cc2cc(Cl)ccc2[nH]1`
## Output -1

## Input Next entry: `Cc1nc(C(F)(F)F)ccc1-c1nnc(SC(=O)c2ccc(Cl)cc2)o1`
## Output 1

====

- assay: chemical genetic growth profiling, strain panel (AID 1159580)
- testContext: S. cerevisiae deletion strains, growth OD, locus YNL071W, strain lat1, stronger effect = lower value
About 2,000 (36%) of roughly 5,500 compounds were called active. Inconclusive results (about 18%) are left out. The other results are listed elsewhere or left out.
endpointName: normalized growth
Respond numerically, and do not add a unit to the figure.

smiles | measurement
CCNc1nc(Cl)nc(NC(C)C)n1 | 1.01

## Input Item under review: `Cc1nccc2c1[nH]c1ccccc12` . Reported normalized growth?
## Output 0.973

## Input Moving on to the next compound: `CCCCCN=C(N)N/N=C\c1c[nH]c2ccc(OC)cc12`
## Output 1

## Input And the next one, `O=C(O)c1cc2cc(Cl)ccc2[nH]1` ?
## Output 0.994

## Input Input `CC(=O)N[C@@H](CC(=O)O)C(=O)O`
## Output 1.01

## Input How about this compound: `CN1CCN(C(c2ccccc2)c2ccccc2)CC1`
## Output 0.984

====

Reference listing: normalized growth of selected compounds
- assay: chemical genetic growth profiling, strain panel (AID 1159580)
- testContext: S. cerevisiae deletion strains, growth OD, locus YFR028C, strain CDC14, stronger effect = lower value
Hit rate of the full screen: of about 5,500 compounds, about 2,000 (36%) were called active. About 18% were inconclusive and are not listed. Some of the results follow.
# respond with the number and nothing more

smiles | measurement
N#CC(C#N)=NNc1ccc(C(F)(F)F)cc1 | 0.144
CN(C)c1nc(=S)ss1 | 0.894
Cc1ccc(C(=O)Nc2ccc3ccccc3n2)cc1 | 0.944

## Input Which measured normalized growth value corresponds to `N#C/C(=C\c1ccc(C(F)(F)F)cc1)c1ccc(O)cc1` ?
## Output 0.964

## Input // same read-out, input: `Cc1c(Cl)cccc1N=C1SCC(=O)N1Cc1ccco1`
## Output 0.964

## Input Next up: `N#CC(C#N)=NNc1cc(C(F)(F)F)ccc1OCC(F)(F)F`
## Output 0.912

## Input Similarly, `CC(=O)Oc1ccc2c(=O)c(Oc3ccc(Cl)cc3)c(C)oc2c1` ?
## Output 0.963

====

Below is a list of entries, each paired with its recorded normalized growth value.
- assay: chemical genetic growth profiling, strain panel (AID 1159580)
- testContext: S. cerevisiae deletion strains, growth OD, locus YDL005C, strain med2, stronger effect = lower value
In all, about 5,500 compounds went through this assay and about 2,000 (36%) were called active. Not shown: some 18% with an inconclusive outcome. This is one part of the list.
Provide a numeric answer; units are not to be included.

## Input Return reported normalized growth; argument: `COc1c2occc2cc2ccc(=O)oc12`
## Output 0.987

## Input // repeat for `N#C/C(=C\c1ccc(O)cc1)C(=O)O` and report
## Output 0.997

## Input Next: `Cc1cc(C)nc(NS(=O)(=O)c2ccc(N)cc2)n1`
## Output 0.969

## Input Follow-up item: `Nc1ncnc2nc[nH]c12`
## Output 0.985

## Input Next: `COc1cc2ccc(=O)oc2c(OC)c1OC`
## Output 0.977

====

- assay: chemical genetic growth profiling, strain panel (AID 1159580)
- testContext: S. cerevisiae deletion strains, growth OD, locus YPL055C, strain LGE1, stronger effect = lower value
The whole screen tested about 5,500 compounds, of which about 2,000 (36%) were called active. Another 18% or so got no clear call; they are omitted. The list shows a part of the results.
# note: exactly 1 is not below, so it is false (0); use true (1) for normalized growth strictly under it

smiles | classAssignment
Nc1ncnc2c1ncn2[C@@H]1O[C@H](CO)[C@@H](O)[C@@H]1O | false (0)

## Input Regarding `N#C/C(=C\Nc1ccc2c(c1)OCCO2)S(=O)(=O)c1ccc(C(F)(F)F)cn1` , kindly confirm whether its normalized growth is beneath 1.
## Output false (0)

## Input Another: `CCOC(=O)CC1=Nn2c(nnc2-c2cc(Cl)cc(Cl)c2)SC1`
## Output true (1)

## Input What would you report for `C[C@H]1C(=O)O[C@@H]2CCN3CC=C(COC(=O)[C@](C)(O)[C@]1(C)O)[C@H]23` ?
## Output false (0)

## Input Would you mind doing `N#C/C(=N/Nc1ccc(C(F)(F)F)cc1)C(=O)C1CC1` as well?
## Output true (1)

====

- assay: chemical genetic growth profiling, strain panel (AID 1159580)
- testContext: S. cerevisiae deletion strains, growth OD, locus YEL061C, strain CIN8, stronger effect = lower value
The campaign covered roughly 5,500 compounds. About 2,000 (36%) were called active. Not shown: some 18% with an inconclusive outcome. The other results are listed elsewhere or left out.
# normalized growth annotations
Reply with just the number.

compound | normalized growth
O=C(NC(=S)Nc1ccc(Cl)cc1)c1ccc([N+](=O)[O-])o1 | 0.98
CCS(=O)(=O)CCn1c([N+](=O)[O-])cnc1C | 1.01
C[C@]12CCC3C(CC[C@H]4CC(=O)CC[C@]34C)C1CCC2=O (some centres not stated) | 0.994
NC(=S)c1ccc2nonc2c1 | 1

## Input # query: normalized growth of entry `COC(=O)c1csc2c(C(F)(F)F)cc(N3CCN(S(=O)(=O)c4ccc(C)cc4)CC3)nc12`
## Output 1.01

## Input Same lookup for `CCCCC(=O)N(Cc1ccc(-c2ccccc2-c2nn[nH]n2)cc1)[C@H](C(=O)O)C(C)C` , please.
## Output 0.985

## Input Here is the next compound: `COc1ccccc1N1CCN(S(=O)(=O)c2ccc(C(F)(F)F)cc2)CC1`
## Output 1.02

## Input // repeat for CCC(=O)O[C@H]1CCC2C3CCc4cc(O)ccc4C3CC[C@@]21C (some centres not stated) and report
## Output 0.999

## Input Follow-up item: Cn1nnnc1SCC1=C(C(=O)O)N2C(=O)C(NC(=O)C(OC=O)c3ccccc3)C2SC1 (configuration not stated)
## Output 1

## Input Please do the same for CCOc1nc2cccc(C(=O)OC(C)OC(=O)OC3CCCCC3)c2n1Cc1ccc(-c2ccccc2-c2nn[nH]n2)cc1 (configuration not stated) as well.
## Output 1

====

- assay: chemical genetic growth profiling, strain panel (AID 1159580)
- testContext: S. cerevisiae deletion strains, growth OD, locus YGL173C, strain kem1, stronger effect = lower value
Out of some 5,500 compounds screened, about 2,000 (36%) were called active. Another 18% or so got no clear call; they are omitted. The list shows a part of the results.
endpointName: normalized growth
Output spec: single numeric token, no unit.

Recorded normalized growth, per entry:
compound | normalized growth
CSCCC(NC=O)C(=O)NC(CC(C)C)C(=O)NC(Cc1ccccc1)C(=O)O (stereo unspecified) | 1.01
Cn1c([N+](=O)[O-])cnc1COC(N)=O | 1
Cc1nccc2c1[nH]c1ccccc12 | 0.981
c1ccc2c(c1)[nH]c1cnccc12 | 0.997
CC(C)=CCC1=C(O)c2ccccc2C(=O)C1=O | 0.745

Please find the next compound below.
## Input # lookup: normalized growth of C[C@]12CCC3C(CC[C@H]4C[C@@H](O)CC[C@]34C)C1CCC2=O (stereo partly specified)
## Output 0.943

====

- assay: chemical genetic growth profiling, strain panel (AID 1159580)
- testContext: S. cerevisiae deletion strains, growth OD, locus YGR229C, strain SMI1
In all, about 5,500 compounds went through this assay and about 2,000 (36%) were called active. About 18% were inconclusive and are not listed. Cut-off read from the data, not from the text of the source: active = normalized growth mostly below about 0.91 (no sharp cut-off); inconclusive = no clear call, values can overlap the other calls; inactive = mostly above about 0.92. This is one part of the list.
Permitted responses: active, inactive

Some entries whose results are on file:
compound | classAssignment
CCCc1nc(C(C)(C)O)c(C(=O)OCc2oc(=O)oc2C)n1Cc1ccc(-c2ccccc2-c2nn[nH]n2)cc1 | inactive
O=C(O)C12CC3CC(CC(Br)(C3)C1)C2 | inactive
CCNc1nc(Cl)nc(NC(C)C)n1 | inactive

Please find the next compound below.
## Input Query: recorded result category for `N#C/C(=C\c1ccc(O)cc1)C(=O)O` in this test
## Output inactive
